Overview of reported clearance across a group of compounds:
assay name: Pharmacokinetic studies in rats
Format: in vivo
recorded conditions: rat, plasma; male Sprague Dawley rats, fasted, IV 1 mg/kg; read-out: Cl, IV Rat PK

{"smiles code": "CN(C)[C@@H]1C(O)=C(C(N)=O)C(=O)[C@@]2(O)C(O)=C3C(=O)c4c(O)cc(CN(C)C(C)(C)C5CC5)c(F)c4C[C@H]3C[C@@H]12", "clearance (mL/min/kg)": 26.5}
{"smiles code": "CC1CCN(Cc2cc(O)c3c(c2F)C[C@H]2C[C@H]4[C@H](N(C)C)C(O)=C(C(N)=O)C(=O)[C@@]4(O)C(O)=C2C3=O)CC1", "clearance (mL/min/kg)": 5}
{"smiles code": "CN(C)[C@@H]1C(O)=C(C(N)=O)C(=O)[C@@]2(O)C(O)=C3C(=O)c4c(O)cc(CN5CCCC5(C)C)c(F)c4C[C@H]3C[C@@H]12", "clearance (mL/min/kg)": 21.3}
{"smiles code": "COc1c(CN2CCCCC2)cc(O)c2c1C[C@H]1C[C@H]3[C@H](N(C)C)C(O)=C(C(N)=O)C(=O)[C@@]3(O)C(O)=C1C2=O", "clearance (mL/min/kg)": 9.26}

###

System: S. aureus Smith (ATCC 13709)
assay name: Mouse systemic infection (septicemia) model, S. aureus Smith
Type: in vivo
recorded conditions: Staphylococcus aureus, ATCC13709; CD-1 female mice, PO, dose that prevents 50% of the mice from death, 48 hours; read-out: SA Smith septicemia PD50 PO
recorded endpoint: ED50 (mg/kg)

{"smiles code": "CCN(Cc1cc(O)c2c(c1F)C[C@H]1C[C@H]3[C@H](N(C)C)C(O)=C(C(N)=O)C(=O)[C@@]3(O)C(O)=C1C2=O)CC(C)C", "recorded endpoint": "ED50", "quantitative readout": 10.1}
{"smiles code": "C[C@H]1CCCCN1Cc1cc(O)c2c(c1F)C[C@H]1C[C@H]3[C@H](N(C)C)C(O)=C(C(N)=O)C(=O)[C@@]3(O)C(O)=C1C2=O", "recorded endpoint": "ED50", "quantitative readout": 8.4}
{"smiles code": "CN(C)c1c(CN2CCCC2(C)C)cc(O)c2c1C[C@H]1C[C@H]3[C@H](N(C)C)C(O)=C(C(N)=O)C(=O)[C@@]3(O)C(O)=C1C2=O", "recorded endpoint": "ED50", "quantitative readout": 10}

###

Overview of reported bioavailability across a group of compounds:
assay name: Pharmacokinetic studies in rats
Assay type: in vivo
recorded conditions: rat, plasma; male Sprague Dawley rats, fasted, oral 10 mg/kg vs IV 1 mg/kg; read-out: % F (oral bioavailability), Oral Rat PK
recorded endpoint: bioavailability (%)

{"smiles code": "CN(C)[C@@H]1C(O)=C(C(N)=O)C(=O)[C@@]2(O)C(O)=C3C(=O)c4c(O)cc(CN5CCCC5(C)C)c(F)c4C[C@H]3C[C@@H]12", "recorded endpoint": "bioavailability", "readout units": "%", "quantitative readout": 14.6}
{"smiles code": "CN(C)[C@@H]1C(O)=C(C(N)=O)C(=O)[C@@]2(O)C(O)=C3C(=O)c4c(O)cc(CN(C)C(C)(C)C)c(Cl)c4C[C@H]3C[C@@H]12", "recorded endpoint": "bioavailability", "readout units": "%", "quantitative readout": 21}
{"smiles code": "CN(C)[C@@H]1C(O)=C(C(N)=O)C(=O)[C@@]2(O)C(O)=C3C(=O)c4c(O)cc(CN(C)C(C)(C)C5CC5)c(F)c4C[C@H]3C[C@@H]12", "recorded endpoint": "bioavailability", "readout units": "%", "quantitative readout": 25.4}
{"smiles code": "COc1c(CN2CCCCC2)cc(O)c2c1C[C@H]1C[C@H]3[C@H](N(C)C)C(O)=C(C(N)=O)C(=O)[C@@]3(O)C(O)=C1C2=O", "recorded endpoint": "bioavailability", "readout units": "%", "quantitative readout": 12.2}
{"smiles code": "CC(C)CNCc1cc(O)c2c(c1F)C[C@H]1C[C@H]3[C@H](N(C)C)C(O)=C(C(N)=O)C(=O)[C@@]3(O)C(O)=C1C2=O", "recorded endpoint": "bioavailability", "readout units": "%", "quantitative readout": 13.7}

###

assay name: Pharmacokinetic studies in rats
Format: in vivo
recorded conditions: rat; male Sprague Dawley rats, fasted, IV 1 mg/kg, plasma; read-out: AUC, IV Rat PK
Labelling field: enter TRUE if recorded AUC is less than 2000 ng·h/mL. Enter FALSE if it equals or exceeds that cut-off.

{"smiles code": "CN(C)c1c(CN2CCCCC2)cc(O)c2c1C[C@H]1C[C@H]3[C@H](N(C)C)C(O)=C(C(N)=O)C(=O)[C@@]3(O)C(O)=C1C2=O", "assigned label": "TRUE"}
{"smiles code": "CN(C)[C@@H]1C(O)=C(C(N)=O)C(=O)[C@@]2(O)C(O)=C3C(=O)c4c(O)cc(CN(C)C(C)(C)C5CC5)c(F)c4C[C@H]3C[C@@H]12", "assigned label": "TRUE"}
{"smiles code": "COc1c(CN2CCCCC2)cc(O)c2c1C[C@H]1C[C@H]3[C@H](N(C)C)C(O)=C(C(N)=O)C(=O)[C@@]3(O)C(O)=C1C2=O", "assigned label": "TRUE"}
{"smiles code": "CN(C)[C@@H]1C(O)=C(C(N)=O)C(=O)[C@@]2(O)C(O)=C3C(=O)c4c(O)cc(CN5CCCC5(C)C)c(F)c4C[C@H]3C[C@@H]12", "assigned label": "TRUE"}
{"smiles code": "CC(C)CNCc1cc(O)c2c(c1F)C[C@H]1C[C@H]3[C@H](N(C)C)C(O)=C(C(N)=O)C(=O)[C@@]3(O)C(O)=C1C2=O", "assigned label": "FALSE"}
{"smiles code": "CC1CCN(Cc2cc(O)c3c(c2F)C[C@H]2C[C@H]4[C@H](N(C)C)C(O)=C(C(N)=O)C(=O)[C@@]4(O)C(O)=C2C3=O)CC1", "assigned label": "FALSE"}

###

assay name: Monkey PK
Format: in vivo
recorded conditions: cynomolgus monkey; cynomolgus monkeys, single PO dose of 10 mg/kg, plasma; read-out: Cmax, oral, monkey

{"compound": "CN(C)c1c(CN2CCCCC2)cc(O)c2c1C[C@H]1C[C@H]3[C@H](N(C)C)C(O)=C(C(N)=O)C(=O)[C@@]3(O)C(O)=C1C2=O [Compound S16-10-161]", "Cmax (ng/mL)": 982}
{"compound": "COc1c(CN2CCCCC2)cc(O)c2c1C[C@H]1C[C@H]3[C@H](N(C)C)C(O)=C(C(N)=O)C(=O)[C@@]3(O)C(O)=C1C2=O [Compound S24-9-23]", "Cmax (ng/mL)": 1350}

Origin of measurements: patent US9315451B2
